I'd be grateful if you could share measured IC50 for these entries.
testTarget: MDM2 (Homo sapiens, UniProt Q00987)
measurementProtocol: MDM2 AlphaScreen, Target #1
Type: biochemical

// known answers, use as guide
[Cl][Fe][Cl] [FeCl2, Iron(II) chloride] | > 10 µM
[Cl][Sn][Cl] [SnCl2, Tin(II) chloride] | > 10 µM
[Cl][Mn][Cl] [MnCl2, Manganese(II) chloride] | > 10 µM
[Cl-].[Cl-].[Mg+2] [MgCl2, Magnesium chloride] | > 10 µM
[Cl][Ni][Cl] [NiCl2, Nickel(II) chloride] | > 10 µM
[Cl][Fe]([Cl])[Cl] [FeCl3, Iron(III) chloride] | > 10 µM

For every record below, what is its IC50?
1. [Cl-].[Cl-].[Co+2] [CoCl2, Cobalt(II) chloride]
2. [Cl-].[Cl-].[Zn+2] [ZnCl2, Zinc(II) chloride]
3. [Cl][Cu][Cl] [CuCl2, Copper(II) chloride]

Result:
> 10 µM
> 10 µM
> 10 µM

For each of the compounds below, state IC50.
1. CC(=O)[O-].[Ag+] [Ag (CH 3COO), Silver acetate]
2. O=[N+]([O-])[O-].O=[N+]([O-])[O-].O=[N+]([O-])[O-].[Al+3] [Al(NO3)3, Aluminum nitrate]
3. [Cl][Pd][Cl] [PdCl2, Palladium(II) chloride]

Result:
1: > 10 µM; 2: > 10 µM; 3: > 10 µM

Ask: Sample [Cl][Au]([Cl])[Cl] [AuCl3, Gold(III) chloride] — what was its IC50?
Result: > 10 µM

----------
testTarget: WRN (ext.) (Homo sapiens)
reportedEndpoint: IC50

[Cl][Pd][Cl] [PdCl2, Palladium(II) chloride] | 1 to 10 µM
CC(=O)[O-].[Ag+] [Ag (CH 3COO), Silver acetate] | > 10 µM
[Cl][Fe]([Cl])[Cl] [FeCl3, Iron(III) chloride] | > 10 µM

Would you mind giving IC50 for every molecule in the list below?
1. [Cl][Mn][Cl] [MnCl2, Manganese(II) chloride]
2. [Cl][Ni][Cl] [NiCl2, Nickel(II) chloride]
3. [Cl-].[Cl-].[Zn+2] [ZnCl2, Zinc(II) chloride]
4. [Cl-].[Cl-].[Co+2] [CoCl2, Cobalt(II) chloride]
5. [Cl][Au]([Cl])[Cl] [AuCl3, Gold(III) chloride]

Result:
1: > 10 µM; 2: > 10 µM; 3: > 10 µM; 4: > 10 µM; 5: 1 to 10 µM

----------
What IC50 was measured for each of the following?
Test system: off-target
measurementProtocol: UPA-UPAR AlphaScreen, Target #2
Type: biochemical

[Cl][Ni][Cl] [NiCl2, Nickel(II) chloride] | > 10 µM
O=[N+]([O-])[O-].O=[N+]([O-])[O-].O=[N+]([O-])[O-].[Al+3] [Al(NO3)3, Aluminum nitrate] | > 10 µM
[Cl][Sn][Cl] [SnCl2, Tin(II) chloride] | > 10 µM
[Cl-].[Cl-].[Zn+2] [ZnCl2, Zinc(II) chloride] | > 10 µM
[Cl-].[Cl-].[Mg+2] [MgCl2, Magnesium chloride] | > 10 µM

Dear reader, for each entry below, please note its IC50.
1. [Cl][Fe]([Cl])[Cl] [FeCl3, Iron(III) chloride]
2. [Cl][Fe][Cl] [FeCl2, Iron(II) chloride]
3. [Cl][Au]([Cl])[Cl] [AuCl3, Gold(III) chloride]
4. [Cl][Mn][Cl] [MnCl2, Manganese(II) chloride]
5. [Cl][Cu][Cl] [CuCl2, Copper(II) chloride]
6. [Cl-].[Cl-].[Co+2] [CoCl2, Cobalt(II) chloride]
7. [Cl][Pd][Cl] [PdCl2, Palladium(II) chloride]

Result:
> 10 µM
> 10 µM
1 to 10 µM
> 10 µM
> 10 µM
> 10 µM
< 1 µM

Origin of the recorded values: paper PMC11285368
